# Test system: ECO 190317
# Experiment Notes: MIC, broth microdilution (CLSI), substance alone or ATB combined with compound at 4 or 8 μg/mL
# Type: cell-based, E. coli
# Conditions: ECO 190317; with Example 1 at 8 μg/ml
Overview of reported MIC ATB combined with Example 1 @8 μg/ml across a group of compounds:

# Compound, MIC ATB combined with Example 1 @8 μg/ml
measured = [
    ("CC1(C)S[C@@H]2[C@H](NC(=O)[C@H](N)c3ccc(O)cc3)C(=O)N2[C@H]1C(=O)O [AMX, Amoxicillin, reference compound]", "<0.031 µg/mL"),
    ("C=CC1=C(C(=O)O)N2C(=O)[C@@H](NC(=O)/C(=N\\OCC(=O)O)c3csc(N)n3)[C@H]2SC1 [FIX, Cefixime, reference compound]", "<0.031 µg/mL"),
    ("C[C@@H](O)[C@H]1C(=O)N2C(C(=O)O)=C(SCCN=CN)C[C@H]12 [IMI]", "<0.031 µg/mL"),
    ("COCC1=C(C(=O)O)N2C(=O)[C@@H](NC(=O)/C(=N\\OC)c3csc(N)n3)[C@H]2SC1 [POD, Cefpodoxime, reference compound]", "<0.031 µg/mL"),
    ("CO/N=C(\\C(=O)N[C@@H]1C(=O)N2C(C(=O)O)=C(COC(C)=O)CS[C@H]12)c1csc(N)n1 [CTX]", "<0.031 µg/mL"),
    ("CO/N=C(\\C(=O)N[C@@H]1C(=O)N2C(C(=O)O)=C(COC(N)=O)CS[C@H]12)c1ccco1 [FUR, Cefuroxime, reference compound]", "<0.031 µg/mL"),
    ("CO/N=C(\\C(=O)N[C@@H]1C(=O)N2C(C(=O)[O-])=C(C[n+]3cccc4c3CCC4)CS[C@H]12)c1csc(N)n1 [CPO]", "<0.031 µg/mL"),
]

----------
# System: PAE UFR90
# Experiment Notes: MIC, broth microdilution (CLSI), substance alone or ATB combined with compound at 4 or 8 μg/mL
# Type: cell-based, P. aeruginosa
# Conditions: PAE UFR90; with Example 15 at 4 μg/ml
# Experimental: Compounds of the present invention were assessed against genotyped bacterial strains alone or in combination with an antibacterial. In the assays, MICs of said compounds or combination of antibiotics with fixed concentrations of said compounds (4 or 8 μg/mL) were determined by the broth microdilution method according to the Clinical Laboratory Standards Institute (CLSI-M7-A7). […]
Overview of reported MIC ATB combined with Example 15 @4 μgml across a group of molecules:

# Molecule, MIC ATB combined with Example 15 @4 μgml
rows = [
    ("COCC1=C(C(=O)O)N2C(=O)[C@@H](NC(=O)/C(=N\\OC)c3csc(N)n3)[C@H]2SC1 [POD, Cefpodoxime, reference compound]", ">32 µg/mL"),
    ("CO/N=C(\\C(=O)N[C@@H]1C(=O)N2C(C(=O)O)=C(COC(N)=O)CS[C@H]12)c1ccco1 [FUR, Cefuroxime, reference compound]", ">32 µg/mL"),
    ("CO/N=C(\\C(=O)N[C@@H]1C(=O)N2C(C(=O)O)=C(COC(C)=O)CS[C@H]12)c1csc(N)n1 [CTX]", ">32 µg/mL"),
    ("NCC[C@H](O)C(=O)N[C@@H]1C[C@H](N)[C@@H](O[C@H]2O[C@H](CN)[C@@H](O)[C@H](O)[C@H]2O)[C@H](O)[C@H]1O[C@H]1O[C@H](CO)[C@@H](O)[C@H](N)[C@H]1O [AN, Amikacin, reference compound]", "2 µg/mL"),
    ("C[C@@H](O)[C@H]1C(=O)N2C(C(=O)O)=C(SCCN=CN)C[C@H]12 [IMI]", "2 µg/mL"),
    ("CN(C)c1cc(NC(=O)CNC(C)(C)C)c(O)c2c1C[C@H]1C[C@H]3[C@H](N(C)C)C(O)=C(C(N)=O)C(=O)[C@@]3(O)C(O)=C1C2=O [TGC]", "16 µg/mL"),
    ("CC1(C)S[C@@H]2[C@H](NC(=O)[C@H](N)c3ccc(O)cc3)C(=O)N2[C@H]1C(=O)O [AMX, Amoxicillin, reference compound]", ">32 µg/mL"),
    ("C=CC1=C(C(=O)O)N2C(=O)[C@@H](NC(=O)/C(=N\\OCC(=O)O)c3csc(N)n3)[C@H]2SC1 [FIX, Cefixime, reference compound]", ">32 µg/mL"),
]
